Kindly supply the reported Internalization values for the records listed here.
Tested on: bEnd3 cells
Assay: Uptake test: cellular interaction (acid wash) and internalization (lysate)
Assay type: cell-based
Conditions: GaCl3; 24 hours
Give bare numbers, in %.

In the examples that follow, each entry is paired with its recorded Internalization.
> print(dat)
                                  substance  result.number
1           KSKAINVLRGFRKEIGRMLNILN [PepH4]           1.55
2                    KLFMALVAFLRFLT [PepH2]           9.24
3  AGILKRW (Dengue virus 2; /note=“#PepH3 (PEP+)”)           0.30
4  VQQLTKRFSL (Dengue virus 2; /note=“#PepH1”)           0.16

Data request, read-out Internalization, for LVAFLRFLTIPPTAGILKRW [PepM′] 3.68

----------
Test: Biodistribution of technetium-labelled peptides
Format: in vivo, CD1 mice
Conditions: CD1, brain, iv, 140 ug/mouse, total radioactivity; 140 μg/mouse; 1 hour; read-out: injected activity in Brain
Residues, ends and D or L forms follow the SMILES beside them. *: point of attachment. X1 = Cc1nn(CCN(CCN)CCCC(=O)*)c(C)c1CC(=O)O
REPORTED PROPERTY: tissue uptake at 1 h (%ID/g)
Answers are plain numbers, in %ID/g.

Look up tissue uptake at 1 h for this molecule: CC[C@H](C)[C@H](NC(=O)CNC(=O)[C@H](C)NC(=O)CCCN(CCN)CCn1nc(C)c(CC(=O)O)c1C)C(=O)N[C@@H](CC(C)C)C(=O)N[C@@H](CCCCN)C(=O)N[C@@H](CCCNC(=N)N)C(=O)N[C@@H](Cc1c[nH]c2ccccc12)C(=O)O [^99mTc(CO)3-Pz^1-pepH3, metal not drawn] (X1-AGILKRW-OH; C-terminus assumed) 0.03

----------
System: in vitro model of the BBB (bEnd3 cells)
Assay: Transmigration of radiolabelled peptides across in vitro BBB model
Type: in vitro ADME
Conditions: GaCl3; 24 hours
REPORTED PROPERTY: BBB transmigration (%)
Answers are plain numbers, in %.

> print(dat)
                                  substance  result.number
1              LVAFLRFLTIPPTAGILKRW [PepM′]          47.31
2           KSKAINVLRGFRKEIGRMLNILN [PepH4]          60.79
3  AGILKRW (Dengue virus 2; /note=“#PepH3 (PEP+)”)          72.63

Fill in BBB transmigration for each of the 2 substances listed.
1. VQQLTKRFSL (Dengue virus 2; /note=“#PepH1”)
2. KLFMALVAFLRFLT [PepH2]

1. 71.47
2. 13.51

----------
Experiment: Biodistribution of technetium-labelled peptides
Assay type: in vivo, CD1 mice
Conditions: CD1, heart, iv, 140 ug/mouse, total radioactivity; 140 μg/mouse; 1 hour; read-out: injected activity in Heart
Residues, ends and D or L forms follow the SMILES beside them. *: point of attachment. X1 = Cc1nn(CCN(CCN)CCCC(=O)*)c(C)c1CC(=O)O
REPORTED PROPERTY: tissue uptake at 1 h (%ID/g)
Numbers only, in %ID/g.

What value of tissue uptake at 1 h has been recorded for this entry: CC[C@H](C)[C@H](NC(=O)CNC(=O)[C@H](C)NC(=O)CCCN(CCN)CCn1nc(C)c(CC(=O)O)c1C)C(=O)N[C@@H](CC(C)C)C(=O)N[C@@H](CCCCN)C(=O)N[C@@H](CCCNC(=N)N)C(=O)N[C@@H](Cc1c[nH]c2ccccc12)C(=O)O [^99mTc(CO)3-Pz^1-pepH3, metal not drawn] (X1-AGILKRW-OH; C-terminus assumed) 0.14

All figures here come from patent US10654917B2.
